Origin of the recorded values: the Immune Epitope Database (IEDB)

Record form. Attribute: Kd. Fill in for each entry.
# TARGET OR TEST SYSTEM: HLA-B*15:01
# ASSAY EXPLANATION: IEDB peptide-MHC binding, purified MHC/competitive/radioactivity; filed as Kd, often an IC50 or EC50 that approximates it; bounds were set here for any values at or beyond the usual limits of such assays
# CONDITION DETAILS: source organism: Vaccinia virus Copenhagen
Only the number, expressed in nM, is required.

Input line: Find the recorded Kd belonging to FSIYSVSCF and report it.
Output line: 3.1

Input line: Okay, and KTMAVTYEL ?
Output line: 5.51

Input line: Then what about the sequence VSVNNVCHM ?
Output line: 13.9

###

# TARGET OR TEST SYSTEM: HLA-A*11:01
# ASSAY EXPLANATION: IEDB peptide-MHC binding, purified MHC/direct/fluorescence; filed as Kd, often an IC50 or EC50 that approximates it; bounds were set here for any values at or beyond the usual limits of such assays
# CONDITION DETAILS: source organism: Camelpox virus CMS
MEASUREMENT KIND: Kd (nM)
API: value field is a number in nM; no unit string.

Input line: Quick one: Kd for KVFFGPIYY ?
Output line: 22

###

# TARGET OR TEST SYSTEM: HLA-B*44:02
# ASSAY EXPLANATION: IEDB peptide-MHC binding, purified MHC/direct/fluorescence; filed as Kd, often an IC50 or EC50 that approximates it; bounds were set here for any values at or beyond the usual limits of such assays
# CONDITION DETAILS: source organism: Giardia lamblia ATCC 50803
pKd: −log10 of the molar value.
MEASUREMENT KIND: pKd

Input line: What does the data say about its pKd? Entry: GMLSSLHTL
Output line: ≤ 4.70

Input line: Now give it for ISYTYNDNW too.
Output line: ≤ 4.70

Input line: Repeat with ITFHNQRDF
Output line: ≤ 4.70

###

Provide the recorded pKd for the entries that follow.
# TARGET OR TEST SYSTEM: HLA-A*68:01
# ASSAY EXPLANATION: IEDB peptide-MHC binding, purified MHC/competitive/radioactivity; filed as Kd, often an IC50 or EC50 that approximates it; bounds were set here for any values at or beyond the usual limits of such assays
# CONDITION DETAILS: source organism: Vaccinia virus WR
The read-out pKd is expressed as -log10 of concentration in moles per litre.

Input line: Look up pKd for this sequence: KAFNHASVK
Output line: 7.75

Input line: Entry SQIFNIISY please
Output line: 6.80

Input line: Now try DSFLRKIGDK .
Output line: 5.20

Input line: Similarly, ITTDDLVKSY ?
Output line: 5.99

Input line: TILDDNLYK , same question.
Output line: 5.93

Input line: Same again, this time with FSTSAADIKR
Output line: 7.78

Input line: Quick one: RVLFSIFYK
Output line: 6.92

Input line: Another sequence to look at: STYSDICSK
Output line: 8.69

Input line: Queued: TIAGGVCYY
Output line: 6.22

Input line: Then what about the sequence IISEEYLSK ?
Output line: 5.11

Input line: Try the sequence HIVCSKTVK
Output line: 6.93

Input line: And for TSMMVILPDK ?
Output line: 7.57

Input line: Another sequence: SMDVLAEKKY
Output line: 5.58

Input line: And KSDNIINIGY ?
Output line: 5.53

Input line: Thanks! And EVGSIRCVKY ?
Output line: 5.82

Input line: Next: EQQQSFMPK
Output line: 6.88

Input line: Request: NMRDLIVTFR
Output line: 7.94

Input line: Entry STQSVLCVK please
Output line: 8.50

Input line: // next record IILSKIPYLR
Output line: 9.11

Input line: MTLVPVLEK ?
Output line: 8.24

Input line: Same thing, different sequence: LTILDDNLY
Output line: 6.42

Input line: Now try FSLESDSIK .
Output line: 6.73

Input line: Entry DAKNDDWKK please
Output line: 6.98

Input line: For EALEYLSELK then?
Output line: 6.98

Input line: Follow-up item: VLNRHAITMY
Output line: 4.77

Input line: Same question for NILGGVLHTK please.
Output line: 7.70

Input line: Entry DFDNLIGVR please
Output line: 4.97

Input line: Same for TQFNFNGHTY
Output line: 6.58

Input line: Would you mind doing ILKKLSSIK as well?
Output line: 5.32

Input line: Moving on to the next sequence: IINFTISMRY
Output line: 6.16

Input line: Try this sequence next: ELYDTSPTK
Output line: 8.39

Input line: Also, KIVNGVLSR please.
Output line: 5.69

Input line: Now give it for DTSNNIAEY too.
Output line: 8.56

Input line: Subsequent entry: TLDTMDDMKK
Output line: 5.67

Input line: Now give it for KFTILEYLY too.
Output line: 6.09

Input line: For SSVQLSNNKY then?
Output line: 7.18

Input line: Next sequence: YIFPGDKTSY
Output line: 7.39

Input line: Record: LIKFISDNKK
Output line: 7.33

Input line: Subsequent entry: LLHCVTESY
Output line: 4.91

Input line: Proceed to IQTSVNTVVR
Output line: 5.84

###

# TARGET OR TEST SYSTEM: HLA-B*58:01
# ASSAY EXPLANATION: IEDB peptide-MHC binding, purified MHC/direct/fluorescence; filed as Kd, often an IC50 or EC50 that approximates it; bounds were set here for any values at or beyond the usual limits of such assays
# CONDITION DETAILS: source organism: Influenza A virus (A/tiger/Thailand/CU-T6/04(H5N1))
MEASUREMENT KIND: Kd

Input line: Which value of Kd has been reported for TYQWIIRNW in the records?
Output line: ≥ 10 µM

###

# TARGET OR TEST SYSTEM: HLA-B*44:03
# ASSAY EXPLANATION: IEDB peptide-MHC binding, purified MHC/competitive/radioactivity; filed as Kd, often an IC50 or EC50 that approximates it; bounds were set here for any values at or beyond the usual limits of such assays
# CONDITION DETAILS: source organism: Dengue virus 1 Singapore/S275/1990
MEASUREMENT KIND: pKd
Scale explanation: pKd corresponds to minus log10 of a concentration expressed in moles per litre.

Input line: Returns the measured pKd for the input sequence. Input: GEVDSFSLGL
Output line: 6.80

###

# TARGET OR TEST SYSTEM: HLA-A*69:01
# ASSAY EXPLANATION: IEDB peptide-MHC binding, purified MHC/direct/fluorescence; filed as Kd, often an IC50 or EC50 that approximates it; bounds were set here for any values at or beyond the usual limits of such assays
# CONDITION DETAILS: source organism: Influenza A virus (A/goose/Hong Kong/8/1976(H1N1))
pKd: −log10 of the molar value.
MEASUREMENT KIND: pKd

Input line: What does the record list as pKd for KTTYWWDGL ?
Output line: ≤ 4.70

###

# TARGET OR TEST SYSTEM: HLA-A*02:12
# ASSAY EXPLANATION: IEDB peptide-MHC binding, purified MHC/direct/fluorescence; filed as Kd, often an IC50 or EC50 that approximates it; bounds were set here for any values at or beyond the usual limits of such assays
# CONDITION DETAILS: source organism: Ravn virus - Ravn, Kenya, 1987
MEASUREMENT KIND: Kd
Units required after the number.

Input line: Which measured Kd value corresponds to NLFDWMHFL ?
Output line: 6 nM

###

# TARGET OR TEST SYSTEM: HLA-B*57:01
# ASSAY EXPLANATION: IEDB peptide-MHC binding, purified MHC/competitive/fluorescence; filed as Kd, often an IC50 or EC50 that approximates it; bounds were set here for any values at or beyond the usual limits of such assays
# CONDITION DETAILS: source organism: Mus musculus
MEASUREMENT KIND: Kd

Input line: Which measured Kd value corresponds to CLVSGLSSL ?
Output line: ≥ 20 µM

###

# TARGET OR TEST SYSTEM: HLA-A*68:02
# ASSAY EXPLANATION: IEDB peptide-MHC binding, purified MHC/direct/fluorescence; filed as Kd, often an IC50 or EC50 that approximates it; bounds were set here for any values at or beyond the usual limits of such assays
# CONDITION DETAILS: source organism: Marburg virus - Musoke, Kenya, 1980
Record form. Attribute: Kd. Fill in for each entry.

Input line: Quick one: Kd for QVGIFLICK ?
Output line: ≥ 20 µM

Input line: Continue with AEILSGRVI
Output line: ≥ 20 µM

###

# TARGET OR TEST SYSTEM: HLA-B*18:01
# ASSAY EXPLANATION: IEDB peptide-MHC binding, purified MHC/direct/fluorescence; filed as Kd, often an IC50 or EC50 that approximates it; bounds were set here for any values at or beyond the usual limits of such assays
# CONDITION DETAILS: source organism: Bacillus cereus H3081.97
pKd: −log10 of the molar value.
MEASUREMENT KIND: pKd

Input line: Report pKd for FPVQFFIVF please.
Output line: ≤ 4.70
